Target: T1, full-length Ctf19-Mcm21 (K. lactis) (Kluyveromyces lactis, UniProt Q6CRN7 1-270; Q6CVQ9 1-293)
T1 chain 1: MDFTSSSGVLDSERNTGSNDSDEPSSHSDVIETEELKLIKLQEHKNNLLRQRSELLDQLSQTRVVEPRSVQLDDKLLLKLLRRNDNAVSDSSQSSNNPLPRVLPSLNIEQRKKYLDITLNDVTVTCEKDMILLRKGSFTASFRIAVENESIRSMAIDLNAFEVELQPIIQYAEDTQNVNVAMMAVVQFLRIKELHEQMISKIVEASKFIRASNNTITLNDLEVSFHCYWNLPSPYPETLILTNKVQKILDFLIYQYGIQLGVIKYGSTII
T1 chain 2: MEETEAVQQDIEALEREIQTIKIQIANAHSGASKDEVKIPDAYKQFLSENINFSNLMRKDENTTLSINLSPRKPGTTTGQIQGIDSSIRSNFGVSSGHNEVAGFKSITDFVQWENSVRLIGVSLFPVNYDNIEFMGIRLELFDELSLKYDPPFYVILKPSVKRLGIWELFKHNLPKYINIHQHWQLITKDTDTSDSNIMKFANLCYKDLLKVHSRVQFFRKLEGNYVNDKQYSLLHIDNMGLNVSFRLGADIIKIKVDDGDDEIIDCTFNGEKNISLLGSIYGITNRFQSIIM
Assay: MST
ASSAY_ENDPOINT: pKd
pKd field: float, defined as -log10 of concentration (mol/L).

These solved cases illustrate the format of a correct answer.
{"BINDER": "SNEIYQQDKIDFALKLKTDF (peptide, UniProt Q6CJY0 318-337, looked up, source: synthetic peptide (Protein Chemistry core facility, IMP, Vienna)) [Okp1 peptide variant N330A]", "RECORDED_RESULT": 5.26}
{"BINDER": "SNEIYQQDKIDFNLPLKTDF (synthetic peptide; terminal chemistry not stated) [K332P]", "RECORDED_RESULT": 5.01}
{"BINDER": "SNEIYQQDKIDANLKLKTDF (synthetic peptide; terminal chemistry not stated) [F329A]", "RECORDED_RESULT": 4.60}

# input Record request: pKd value, item SNEIYQQDKIAANLKLKTDF (synthetic peptide; terminal chemistry not stated) [D328A-F329A]
# output 4.19
